hMCH-1R (Homo sapiens, UniProt Q99705) measurements of IC50, listed per entry.
Sequence (Q99705 whole entry): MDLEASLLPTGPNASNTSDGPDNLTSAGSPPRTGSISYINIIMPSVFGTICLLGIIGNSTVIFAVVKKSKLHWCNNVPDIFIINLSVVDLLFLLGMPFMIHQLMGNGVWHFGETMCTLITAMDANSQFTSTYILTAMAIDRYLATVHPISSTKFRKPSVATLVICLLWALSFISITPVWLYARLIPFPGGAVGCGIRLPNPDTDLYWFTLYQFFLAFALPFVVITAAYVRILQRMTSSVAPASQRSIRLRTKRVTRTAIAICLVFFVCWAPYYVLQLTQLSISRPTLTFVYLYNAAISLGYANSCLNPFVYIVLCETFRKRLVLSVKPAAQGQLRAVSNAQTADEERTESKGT
Response body: numeric value in nM, unit text excluded.

given_smiles=CC1(O)CCN(Cc2cc3cc(C#Cc4ccc(-c5ccc(Cl)cc5)cn4)ccc3s2)CC1 metric=IC50 measured_number=31

Now turn to the next compound.
With hMCH-1R (Homo sapiens, UniProt Q99705) as the test system, "Cc1cc(C#Cc2ccc(-c3ccc(Cl)cc3)cn2)ccc1OCCN(C1CCCCC1)C1CCCC1" showed IC50 of 6.2
